test: MRT in male CD-1 mouse at 10 mg/kg, po measured after 24 hrs by LC-MS/MS analysis; assay type: ADME, organism-based; conditions: in vivo
The entries below are paired with their reported MRT.
readout.name: MRT (h)

# chemical.structure, readout.name, readout.units, measured
measured = [
    ("Cc1nc(N[C@H](C)c2cccc(C(F)F)c2F)c2cc3c(cc2n1)OCCN3C(=O)C1CCN(C)CC1", "MRT", "h", 2.11),
    ("COc1cc2nc(C)nc(N[C@H](C)c3cc(N)cc(C(F)(F)F)c3)c2cc1O[C@H]1CCOC1", "MRT", "h", 2.44),
    ("Cc1nc(N[C@H](C)c2cccc(C(F)F)c2F)c2cc3c(cc2n1)OCCN3C(=O)C1CCN(C(C)C)CC1", "MRT", "h", 2.83),
]
